Reported Activity values for a set of molecules
target: Protein cereblon/Tyrosine-protein kinase BTK (Homo sapiens, UniProt Q06187+Q96SW2); assay: PROTAC activity at CRBN/BTK in human Ramos cells assessed as induction of BTK degradation at 100 nM incubated for 24 hrs by Western blot analysis relative to control; format: cell-based
Sequence (Q06187 2-659 limits assumed): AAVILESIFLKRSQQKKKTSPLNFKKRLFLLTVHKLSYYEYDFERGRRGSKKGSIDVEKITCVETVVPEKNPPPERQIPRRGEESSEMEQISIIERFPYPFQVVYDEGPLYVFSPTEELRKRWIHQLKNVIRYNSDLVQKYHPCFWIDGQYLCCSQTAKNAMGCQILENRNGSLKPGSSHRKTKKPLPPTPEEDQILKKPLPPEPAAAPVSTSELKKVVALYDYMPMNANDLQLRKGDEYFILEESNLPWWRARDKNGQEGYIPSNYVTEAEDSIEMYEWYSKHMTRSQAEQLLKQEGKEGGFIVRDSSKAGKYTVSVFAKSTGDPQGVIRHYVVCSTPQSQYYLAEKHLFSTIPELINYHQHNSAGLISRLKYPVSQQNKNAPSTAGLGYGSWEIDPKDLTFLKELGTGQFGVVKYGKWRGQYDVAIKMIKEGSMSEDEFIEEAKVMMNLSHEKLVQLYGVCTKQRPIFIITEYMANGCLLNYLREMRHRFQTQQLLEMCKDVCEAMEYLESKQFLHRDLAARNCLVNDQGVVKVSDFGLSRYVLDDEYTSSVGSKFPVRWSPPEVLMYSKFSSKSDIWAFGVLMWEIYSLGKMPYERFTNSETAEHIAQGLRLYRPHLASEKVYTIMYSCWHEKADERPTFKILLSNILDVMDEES
Sequence (Q96SW2 whole entry partner): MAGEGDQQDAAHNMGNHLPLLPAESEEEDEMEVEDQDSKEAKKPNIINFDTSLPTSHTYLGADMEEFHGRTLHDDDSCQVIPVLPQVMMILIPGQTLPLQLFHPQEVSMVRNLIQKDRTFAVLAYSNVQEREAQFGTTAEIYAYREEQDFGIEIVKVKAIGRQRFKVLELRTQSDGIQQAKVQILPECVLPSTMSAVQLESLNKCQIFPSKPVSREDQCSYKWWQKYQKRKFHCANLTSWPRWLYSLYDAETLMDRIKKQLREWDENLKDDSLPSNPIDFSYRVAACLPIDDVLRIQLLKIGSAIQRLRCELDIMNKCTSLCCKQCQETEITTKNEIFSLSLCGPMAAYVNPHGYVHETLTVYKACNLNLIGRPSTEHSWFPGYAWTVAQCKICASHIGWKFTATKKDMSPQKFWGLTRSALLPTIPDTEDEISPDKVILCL

Query :: # return recorded Activity for entry Nc1ncnc2c1c(-c1ccc(Oc3ccccc3)cc1)nn2C1CCN(C(=O)CN2CCN(CCOCC(=O)Nc3ccc4c(c3)C(=O)N(C3CCC(=O)NC3=O)C4=O)CC2)CC1 (stereo not drawn)
Result :: 28.5%

Query :: # return recorded Activity for entry Nc1ncnc2c1c(-c1ccc(Oc3ccccc3)cc1)nn2C1CCN(C(=O)c2ccc(N3CCN(CC#Cc4ccc5c(c4)C(=O)N(C4CCC(=O)NC4=O)C5=O)CC3)nc2)CC1 (stereo not drawn)
Result :: 47.4%

Query :: # return recorded Activity for entry Nc1ncnc2c1c(-c1ccc(Oc3ccccc3)cc1)nn2C1CCN(CC2CN(CC3CN(c4ccc5c(c4)C(=O)N(C4CCC(=O)NC4=O)C5=O)C3)C2)CC1 (stereo not drawn)
Result :: 31.5%

---

experiment: Clearance in Sprague-Dawley rat at 2 mg/kg, iv measured after 48 hrs by UPLC analysis; assay type: ADME, organism-based; conditions: in vivo
Property Measured: clearance (mL/min/kg)
Give just the numeric value; mL/min/kg need not be written.

Query :: # return recorded clearance for entry Nc1ncnc2c1c(-c1ccc(Oc3ccccc3)cc1)nn2C1CCN(C(=O)CN2CCN(CC3CN(c4ccc5c(c4)C(=O)N(C4CCC(=O)NC4=O)C5=O)C3)CC2)CC1 (stereo unspecified)
Result :: 37.5

---

molecular target: Protein cereblon/Tyrosine-protein kinase BTK (Homo sapiens, UniProt Q06187+Q96SW2); experiment: PROTAC activity at CRBN/BTK in human MINO cells assessed as induction of BTK degradation by measuring maximal efficacy incubated for 24 hrs by Western blot analysis relative to control; format: cell-based
Reported Emax values for a set of compounds
Give just the numeric value; % need not be written.

Compound | Tgt | Emax [%]
Nc1ncnc2c1c(-c1ccc(Oc3ccccc3)cc1)nn2C1CCN(C(=O)CN2CCN(CC3CCN(c4ccc5c(c4)C(=O)N(C4CCC(=O)NC4=O)C5=O)CC3)CC2)CC1 (centres undefined) | Protein cereblon/Tyrosine-protein kinase BTK (Homo sapiens, UniProt Q06187+Q96SW2) | 99.7
Nc1ncnc2c1c(-c1ccc(Oc3ccccc3)cc1)nn2C1CCN(C(=O)CN2CCN(CC3CN(c4cccc5c4C(=O)N(C4CCC(=O)NC4=O)C5=O)C3)CC2)CC1 (centres undefined) | Protein cereblon/Tyrosine-protein kinase BTK (Homo sapiens, UniProt Q06187+Q96SW2) | 99.7
Nc1ncnc2c1c(-c1ccc(Oc3ccccc3)cc1)nn2C1CCN(C(=O)CN2CCN(CC3CN(c4ccc5c(c4)C(=O)N(C4CCC(=O)NC4=O)C5=O)C3)CC2)CC1 (centres undefined) | Protein cereblon/Tyrosine-protein kinase BTK (Homo sapiens, UniProt Q06187+Q96SW2) | 100

Could you now consider this next compound?
Query :: # return recorded Emax for entry Nc1ncnc2c1c(-c1ccc(Oc3ccccc3)cc1)nn2C1CCN(C(=O)CN2CCN(CC3CCN(c4cccc5c4C(=O)N(C4CCC(=O)NC4=O)C5=O)CC3)CC2)CC1 (centres undefined)
Result :: 99.5

---

assay: Half-life in Sprague-Dawley rat at 20 mg/kg, po by UPLC analysis; assay type: ADME, organism-based; conditions: in vivo
Property Measured: half-life (h)
Give just the numeric value; h need not be written.

Query :: # return recorded half-life for entry Nc1ncnc2c1c(-c1ccc(Oc3ccccc3)cc1)nn2C1CCN(C(=O)CN2CCN(CC3CN(c4ccc5c(c4)C(=O)N(C4CCC(=O)NC4=O)C5=O)C3)CC2)CC1 (stereo unspecified)
Result :: 2.12

---

Reported Emax values for a set of molecules
target: Protein cereblon/Tyrosine-protein kinase BTK (Homo sapiens, UniProt Q06187+Q96SW2); assay: PROTAC activity at CRBN/BTK in human Ramos cells assessed as induction of BTK degradation by measuring maximal efficacy incubated for 24 hrs by Western blot analysis relative to control; assay type: cell-based
Give just the numeric value; % need not be written.

Molecule | Emax / %
Nc1ncnc2c1c(-c1ccc(Oc3ccccc3)cc1)nn2C1CCN(C(=O)CN2CCN(CC3CCN(c4ccc5c(c4)C(=O)N(C4CCC(=O)NC4=O)C5=O)CC3)CC2)CC1 (centres undefined) | 99.7
Nc1ncnc2c1c(-c1ccc(Oc3ccccc3)cc1)nn2C1CCN(C(=O)CN2CCN(CC3CN(c4ccc5c(c4)C(=O)N(C4CCC(=O)NC4=O)C5=O)C3)CC2)CC1 (centres undefined) | 99.9
Nc1ncnc2c1c(-c1ccc(Oc3ccccc3)cc1)nn2C1CCN(C(=O)CN2CCN(CC3CN(c4cccc5c4C(=O)N(C4CCC(=O)NC4=O)C5=O)C3)CC2)CC1 (centres undefined) | 97.6

Could you now consider this next molecule?
Query :: # return recorded Emax for entry Nc1ncnc2c1c(-c1ccc(Oc3ccccc3)cc1)nn2C1CCN(Cc2ccc(C#CC3CCN(c4cccc5c4C(=O)N(C4CCC(=O)NC4=O)C5=O)CC3)nc2)CC1 (centres undefined)
Result :: 95
